system: subgroup 2b PLpros; test: PLpro inhibition IC50, text summary over all three PLpros; assay type: biochemical; settings: read-out: IC50 values; text summary for the most potent inhibitors
pIC50: −log10 of the molar value.
quantity: pIC50

### Prompt Please look at this compound and report its pIC50: Cc1ccc(N)cc1C(=O)N[C@H](C)c1cccc2ccccc12 [GRL0617]
### Response > 5.00
